Reported proportion of surviving animals by item:
Test system: human H-460-GFP lung tumors
Assay: Orthotopically implanted human H-460-GFP lung tumor mouse xenograft, survival and metastasis (Example 3)
Assay type: in vivo
Settings: treatment day 11; 20 mg/kg

[
  {
    "compoundStructureString": "O=C(O)CNC(=O)c1nc(Cl)c2ccccc2c1O",
    "proportion of surviving animals": "10/10"
  },
  {
    "compoundStructureString": "O=C(O)CNC(=O)c1ncc2cc(Oc3ccc(F)cc3)ccc2c1O",
    "proportion of surviving animals": "9/10"
  },
  {
    "compoundStructureString": "COc1ccc(Oc2ccc3c(O)c(C(=O)NCC(=O)O)ncc3c2)cc1",
    "proportion of surviving animals": "10/10"
  },
  {
    "compoundStructureString": "Cc1nc(C(=O)NCC(=O)O)c(O)c2ccc(Oc3ccccc3)cc12",
    "proportion of surviving animals": "9/10"
  }
]

* * *

Tested on: human H-460-GFP lung tumors
Experiment: Orthotopically implanted human H-460-GFP lung tumor mouse xenograft, survival and metastasis (Example 3)
Type: in vivo
Details: treatment day 12; 20 mg/kg

[
  {
    "compound": "O=C(O)CNC(=O)c1nc(Cl)c2ccccc2c1O [Compound A]",
    "proportion of surviving animals": "10/10"
  },
  {
    "compound": "Cc1nc(C(=O)NCC(=O)O)c(O)c2ccc(Oc3ccccc3)cc12 [Compound D]",
    "proportion of surviving animals": "9/10"
  },
  {
    "compound": "COc1ccc(Oc2ccc3c(O)c(C(=O)NCC(=O)O)ncc3c2)cc1 [Compound C]",
    "proportion of surviving animals": "9/10"
  },
  {
    "compound": "O=C(O)CNC(=O)c1ncc2cc(Oc3ccc(F)cc3)ccc2c1O [Compound E]",
    "proportion of surviving animals": "9/10"
  }
]

* * *

Tested on: human H-460-GFP lung tumors
Experiment: Orthotopically implanted human H-460-GFP lung tumor mouse xenograft, survival and metastasis (Example 3)
Type: in vivo
Settings: treatment day 9; 20 mg/kg

[
  {
    "compoundStructureString": "O=C(O)CNC(=O)c1ncc2cc(Oc3ccc(F)cc3)ccc2c1O",
    "proportion of surviving animals": "9/10"
  },
  {
    "compoundStructureString": "COc1ccc(Oc2ccc3c(O)c(C(=O)NCC(=O)O)ncc3c2)cc1",
    "proportion of surviving animals": "10/10"
  },
  {
    "compoundStructureString": "Cc1nc(C(=O)NCC(=O)O)c(O)c2ccc(Oc3ccccc3)cc12",
    "proportion of surviving animals": "10/10"
  },
  {
    "compoundStructureString": "O=C(O)CNC(=O)c1nc(Cl)c2ccccc2c1O",
    "proportion of surviving animals": "10/10"
  }
]

* * *

System: BNIP3 gene expression
Assay: BNIP3 gene expression in Kelly neuroblastoma cells
Type: cell-based
Details: Kelly, read-out: fold-increase in BNIP3 mRNA expression
Reported fold induction at 20 µM by item:

[
  {
    "molecule": "C[C@H](NC(=O)c1ncc2cc(Oc3ccccc3)ccc2c1O)C(=O)O [Compound B]",
    "fold induction at 20 µM": 17.2
  },
  {
    "molecule": "Cc1nc(C(=O)NCC(=O)O)c(O)c2ccc(Oc3ccccc3)cc12 [Compound D]",
    "fold induction at 20 µM": 21.9
  },
  {
    "molecule": "O=C(O)CNC(=O)c1ncc2cc(Oc3ccc(F)cc3)ccc2c1O [Compound E]",
    "fold induction at 20 µM": 31.8
  },
  {
    "molecule": "COc1ccc(Oc2ccc3c(O)c(C(=O)NCC(=O)O)ncc3c2)cc1 [Compound C]",
    "fold induction at 20 µM": 2.6
  }
]

* * *

Reported proportion of surviving animals by item:
Test system: human H-460-GFP lung tumors
Assay: Orthotopically implanted human H-460-GFP lung tumor mouse xenograft, survival and metastasis (Example 3)
Format: in vivo
Details: treatment day 14; 20 mg/kg
Protocol: To examine the effect of methods and compounds of the present invention in a metastatic model of tumor progression, compounds of the invention were administered to orthotopically implanted H-460-GFP xenografted animals. […] In addition to weekly caliper measurement of primary tumor size, GFP imaging was performed on animals to monitor primary tumor progression and metastasis, starting the first day of treatment. […] Primary tumors were excised, measured and weighed at necropsy. […]

[
  {
    "compoundStructureString": "COc1ccc(Oc2ccc3c(O)c(C(=O)NCC(=O)O)ncc3c2)cc1",
    "proportion of surviving animals": "8/10"
  },
  {
    "compoundStructureString": "Cc1nc(C(=O)NCC(=O)O)c(O)c2ccc(Oc3ccccc3)cc12",
    "proportion of surviving animals": "9/10"
  },
  {
    "compoundStructureString": "O=C(O)CNC(=O)c1nc(Cl)c2ccccc2c1O",
    "proportion of surviving animals": "8/10"
  },
  {
    "compoundStructureString": "O=C(O)CNC(=O)c1ncc2cc(Oc3ccc(F)cc3)ccc2c1O",
    "proportion of surviving animals": "8/10"
  }
]

* * *

Reported fold-increase in BNIP3 mRNA expression by item:
Tested on: BNIP3 gene expression
Assay: BNIP3 gene expression in Hep3B cells (Affymetrix microarray)
Format: cell-based, human
Settings: 25 μM, vs DMSO control
readoutType: fold-increase in BNIP3 mRNA expression (fold)

[
  {
    "compoundStructureString": "O=C(O)CNC(=O)c1nc2cc(Cl)ccc2cc1O",
    "unitAbbreviation": "fold",
    "numericReadout": 2.0
  },
  {
    "compoundStructureString": "O=C(O)c1c[nH]c2c(ccc3cccnc32)c1=O",
    "unitAbbreviation": "fold",
    "numericReadout": 3.5
  },
  {
    "compoundStructureString": "O=C(O)CNC(=O)c1ncc2cc(Oc3ccccc3)ccc2c1O",
    "unitAbbreviation": "fold",
    "numericReadout": 3.0
  },
  {
    "compoundStructureString": "COc1ccc2c(O)c(C(=O)NCC(=O)O)nc(Cl)c2c1",
    "unitAbbreviation": "fold",
    "numericReadout": 2.1
  },
  {
    "compoundStructureString": "O=C(O)CNC(=O)c1ncc2cc(Sc3ccccc3)ccc2c1O",
    "unitAbbreviation": "fold",
    "numericReadout": 3.6
  },
  {
    "compoundStructureString": "COc1ccc(CCN(CCC(=O)NO)S(=O)(=O)c2ccc(NC(=O)N(Cc3ccccc3)Cc3ccccc3)cc2)cc1",
    "unitAbbreviation": "fold",
    "numericReadout": 4.2
  }
]

* * *

Tested on: BNIP3L gene expression
Assay: BNIP3L gene expression in Hep3B cells (Affymetrix microarray)
Assay type: cell-based, human
Details: 25 μM, vs DMSO control

[
  {
    "molecule": "O=C(O)CNC(=O)c1ncc2cc(Sc3ccccc3)ccc2c1O [Compound N]",
    "unitAbbreviation": "fold",
    "fold-increase in BNIP3L mRNA expression": 2.8
  },
  {
    "molecule": "O=C(O)c1c[nH]c2c(ccc3cccnc32)c1=O [Compound F]",
    "unitAbbreviation": "fold",
    "fold-increase in BNIP3L mRNA expression": 3.2
  },
  {
    "molecule": "COc1ccc(CCN(CCC(=O)NO)S(=O)(=O)c2ccc(NC(=O)N(Cc3ccccc3)Cc3ccccc3)cc2)cc1 [Compound G]",
    "unitAbbreviation": "fold",
    "fold-increase in BNIP3L mRNA expression": 4.3
  },
  {
    "molecule": "O=C(O)CNC(=O)c1nc2cc(Cl)ccc2cc1O [Compound H]",
    "unitAbbreviation": "fold",
    "fold-increase in BNIP3L mRNA expression": 1.5
  },
  {
    "molecule": "COc1ccc2c(O)c(C(=O)NCC(=O)O)nc(Cl)c2c1 [Compound I]",
    "unitAbbreviation": "fold",
    "fold-increase in BNIP3L mRNA expression": 1.7
  },
  {
    "molecule": "O=C(O)CNC(=O)c1ncc2cc(Oc3ccccc3)ccc2c1O [Compound K]",
    "unitAbbreviation": "fold",
    "fold-increase in BNIP3L mRNA expression": 2.2
  }
]

* * *

Test system: BNIP3L gene expression
Assay: In vivo BNIP3L gene expression in Swiss Webster mice (quantitative PCR)
Conditions: Mus musculus, iv, 4 h, read-out: fold change in BNIP3L mRNA level, kidney; single 60 mg/kg i.v. dose; four hours after administration; normalized to 18S
readoutType: fold induction at 60 mg/kg

[
  {
    "compoundStructureString": "C[C@H](NC(=O)c1ncc2cc(Oc3ccccc3)ccc2c1O)C(=O)O",
    "target": "BNIP3L gene expression",
    "numericReadout": 1.2
  },
  {
    "compoundStructureString": "O=C(O)CNC(=O)c1ncc2cc(Oc3ccc(F)cc3)ccc2c1O",
    "target": "BNIP3L gene expression",
    "numericReadout": 0.8
  },
  {
    "compoundStructureString": "Cc1nc(C(=O)NCC(=O)O)c(O)c2ccc(Oc3ccccc3)cc12",
    "target": "BNIP3L gene expression",
    "numericReadout": 5
  },
  {
    "compoundStructureString": "COc1ccc(Oc2ccc3c(O)c(C(=O)NCC(=O)O)ncc3c2)cc1",
    "target": "BNIP3L gene expression",
    "numericReadout": 0.9
  }
]
